Assay: Solubility in water
Assay type: physicochemical
Endpoint Label: solubility

Molecule	Endpoint Label	Value
CCc1c2c(nc3ccc(OC(=O)N4CCC(CCn5ccc6cc(-n7c(O)nnc7-c7cc(C(C)C)c(O)cc7O)ccc65)CC4)cc13)-c1cc([C@@](O)(CC)C(=O)[O-])c(CO)c(=O)n1C2.[Na+] [SDC-TRAP-0063 Sodium]	solubility	> 52.5 mg/mL

----------
Assay: Repeat dose GLP toxicity study in dogs
Type: in vivo, dog
Conditions: dog, in vivo, 20 mg/kg; male dogs; at the HNSTD; read-out: exposure (AUCt)

Entry Smiles	AUC(0-t)
CCc1c2c(nc3ccc(OC(=O)N4CCC(CCn5ccc6cc(-n7c(O)nnc7-c7cc(C(C)C)c(O)cc7O)ccc65)CC4)cc13)-c1cc3c(c(=O)n1C2)COC(=O)[C@]3(O)CC	181 µg·h/mL

----------
Experiment: Repeat dose GLP toxicity study in rats
Assay type: in vivo, rat
Conditions: rat, in vivo, 30 mg/kg; male rats; at the STD10 in the GLP toxicology study
Endpoint Label: AUC(0-t) (µg·h/mL)

Entry Smiles	Endpoint Label	Value
CCc1c2c(nc3ccc(OC(=O)N4CCC(CCn5ccc6cc(-n7c(O)nnc7-c7cc(C(C)C)c(O)cc7O)ccc65)CC4)cc13)-c1cc3c(c(=O)n1C2)COC(=O)[C@]3(O)CC	AUC(0-t)	107

----------
Assay: pH-dependent equilibrium of lactone ring and open chain carboxylic acid form in solution
Type: physicochemical
Excerpt: In solution, SDC-TRAP-0063 contains a lactone ring at pH-dependent equilibrium with the corresponding open chain carboxylic acid form.

Entry Smiles	pKa
CCc1c2c(nc3ccc(OC(=O)N4CCC(CCn5ccc6cc(-n7c(O)nnc7-c7cc(C(C)C)c(O)cc7O)ccc65)CC4)cc13)-c1cc3c(c(=O)n1C2)COC(=O)[C@]3(O)CC	9.3

----------
Experiment: Repeat dose GLP toxicity study in rats
Assay type: in vivo, rat
Details: rat, in vivo, 30 mg/kg; female rats; at the STD10 in the GLP toxicology study

Entry Smiles	AUC(0-t) / ng·h/mL
CCc1c2c(nc3ccc(OC(=O)N4CCC(CCn5ccc6cc(-n7c(O)nnc7-c7cc(C(C)C)c(O)cc7O)ccc65)CC4)cc13)-c1cc3c(c(=O)n1C2)COC(=O)[C@]3(O)CC	68000

----------
Assay: Repeat dose GLP toxicity study in dogs
Format: in vivo, dog
Conditions: dog, in vivo, 20 mg/kg; female dogs; at the HNSTD; read-out: exposure (AUCt)
Endpoint Label: AUC(0-t) (µg·h/mL)

Molecule	Value
CCc1c2c(nc3ccc(OC(=O)N4CCC(CCn5ccc6cc(-n7c(O)nnc7-c7cc(C(C)C)c(O)cc7O)ccc65)CC4)cc13)-c1cc3c(c(=O)n1C2)COC(=O)[C@]3(O)CC [SDC-TRAP-0063]	183

----------
Assay: Exposure in mice
Details: mouse, in vivo, 20 mg/kg dose

Entry Smiles	AUC(0-t)
CCc1c2c(nc3ccc(OC(=O)N4CCC(CCn5ccc6cc(-n7c(O)nnc7-c7cc(C(C)C)c(O)cc7O)ccc65)CC4)cc13)-c1cc3c(c(=O)n1C2)COC(=O)[C@]3(O)CC	112 µg·h/mL

Values from patent US20200230126A1
